# testedTarget: ScHse1
# testDetails: SPOT peptide array binding signal intensity (averaged, normalized) (arbitrary units (background-subtracted, floor 0; scale differs between SH3 domains)); higher = stronger binding of the SH3 domain to the peptide
What SPOT peptide array binding signal intensity was measured for each of the following?
One number for each entry.

Worked examples, 10 binders total:
1) AHFQPQRTAPKPPIS ... 37
2) DRIRMFIRFPKFLLE ... 1400
3) MARRRLPDRPPNGIG ... 241
4) IKTRSVPKIPSIESV ... 26
5) SNRRPVPRRPSQPLN ... 639
6) LYKRKPILLPDPKPL ... 267
7) LLGRKRPVMERVVDI ... 552
8) GDHPKGPPPPPPPPD ... 16
9) RRRRRPHRIERPLSN ... 1290
10) PSPSSSPPPIPKTAN ... 50

Provide the reported SPOT peptide array binding signal intensity of each entry below, same order.
1. HPRFVSPRIPSRIVK
2. EQEEIAPSLPSRNSI

stdout:
[820, 7]
